Values from ChEMBL document CHEMBL3217569

Biological target: Hexokinase-4 (Homo sapiens, UniProt P35557)
Sequence (P35557 whole entry): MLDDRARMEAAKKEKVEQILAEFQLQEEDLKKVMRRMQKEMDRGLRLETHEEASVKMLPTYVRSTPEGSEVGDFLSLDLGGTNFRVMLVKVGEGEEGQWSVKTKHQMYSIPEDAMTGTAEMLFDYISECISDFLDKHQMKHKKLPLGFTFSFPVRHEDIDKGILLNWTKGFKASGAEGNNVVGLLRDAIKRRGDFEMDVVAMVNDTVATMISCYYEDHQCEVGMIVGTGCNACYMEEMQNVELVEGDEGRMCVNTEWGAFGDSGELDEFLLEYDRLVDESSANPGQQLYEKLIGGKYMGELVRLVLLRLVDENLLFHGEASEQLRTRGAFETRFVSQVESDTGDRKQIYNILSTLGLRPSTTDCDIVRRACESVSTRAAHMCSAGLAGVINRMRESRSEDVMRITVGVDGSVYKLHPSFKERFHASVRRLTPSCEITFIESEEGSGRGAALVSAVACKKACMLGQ
Experiment: Activation of recombinant human His6-tagged glucokinase by G6PDH-coupled spectrophotometry
Value Kind: EC50 (nM)

Below: 6 molecules and their reported EC50.
O=C(Nc1ncc(-c2cn(CCO)nn2)s1)[C@H](CC1CCOCC1)c1ccc(S(=O)(=O)C2CC2)cc1    220
O=C(Nc1ncc(-c2cn(CCO)nn2)s1)C(CC1CCOCC1)c1ccc(S(=O)(=O)C2CC2)cc1 (racemic)    180
O=C(Nc1ncc(-c2cn(CCOCc3ccccc3)nn2)s1)C(CC1CCOCC1)c1ccc(S(=O)(=O)C2CC2)cc1 (racemic)    290
CCOC(=O)CCCn1cc(-c2cnc(NC(=O)C(CC3CCOCC3)c3ccc(S(=O)(=O)C4CC4)cc3)s2)nn1 (racemic)    450
COC(=O)[C@@H](NC(=O)c1cnc(NC(=O)C(CC2CCOCC2)c2ccc(S(=O)(=O)C3CC3)cc2)s1)C(C)C (mixture of isomers)    1440
CCOC(=O)CCn1cc(-c2cnc(NC(=O)C(CC3CCOCC3)c3ccc(S(=O)(=O)C4CC4)cc3)s2)nn1 (racemic)    350

a: CC(C)[C@H](NC(=O)c1cnc(NC(=O)C(CC2CCOCC2)c2ccc(S(=O)(=O)C3CC3)cc2)s1)C(=O)O (mixture of isomers)
b: CCOC(=O)Cn1cc(-c2cnc(NC(=O)C(CC3CCOCC3)c3ccc(S(=O)(=O)C4CC4)cc3)s2)nn1 (racemic)
Which of the two items, a and b , has the greater recorded EC50? Return value: the label identifying the chosen record.
a

P: CN1CCN(C(=O)Cn2cc(-c3cnc(NC(=O)C(CC4CCOCC4)c4ccc(S(=O)(=O)C5CC5)cc4)s3)nn2)CC1 (racemic)
Q: CN(C)C(=O)Cn1cc(-c2cnc(NC(=O)C(CC3CCOCC3)c3ccc(S(=O)(=O)C4CC4)cc3)s2)nn1 (racemic)
Field: lower EC50 | Options: P / Q Return value: the label identifying the chosen record.
Q
